# Tested on: Saccharomyces cerevisiae
# experimental_protocol: Antifungal activity against Saccharomyces cerevisiae
# Type: functional
Each record here notes measured MFC.

MFC reported for this compound CCC(C)n1ncn(-c2ccc(N3CCN(c4ccc(OCC5COC(Cn6cncn6)(c6ccc(Cl)cc6Cl)O5)cc4)CC3)cc2)c1=O (stereo not given) [ITRACONAZOLE] : > 4 µg/mL

MFC reported for this compound CC[C@H](C)C[C@H](C)CCCCCCCCC(=O)N[C@H]1C[C@@H](O)[C@@H](NCCN)NC(=O)[C@@H]2[C@@H](O)CCN2C(=O)[C@H]([C@H](O)CCN)NC(=O)[C@H]([C@H](O)[C@@H](O)c2ccc(O)cc2)NC(=O)[C@@H]2C[C@@H](O)CN2C(=O)[C@H]([C@@H](C)O)NC1=O [CASPOFUNGIN] : 4 µg/mL

MFC reported for this compound C[C@@H]1[C@H](O)[C@@H](C)/C=C/C=C/C=C/C=C/C=C/C=C/C=C/[C@H](O[C@@H]2O[C@H](C)[C@@H](O)[C@H](N)[C@@H]2O)C[C@@H]2O[C@](O)(C[C@@H](O)C[C@@H](O)[C@H](O)CC[C@@H](O)C[C@@H](O)CC(=O)O[C@H]1C)C[C@H](O)[C@H]2C(=O)O [AMPHOTERICIN B] : > 4 µg/mL

***
MFC reported for this compound C[C@@H](c1ncncc1F)[C@](O)(Cn1cncn1)c1ccc(F)cc1F [VORICONAZOLE] : > 4 µg/mL

MFC reported for this compound CC[C@@H]([C@H](C)O)n1ncn(-c2ccc(N3CCN(c4ccc(OC[C@@H]5CO[C@@](Cn6cncn6)(c6ccc(F)cc6F)C5)cc4)CC3)cc2)c1=O [POSACONAZOLE] : > 4 µg/mL
